assayOverview: clinical
statedConditions: human, plasma, intravenous, Volume of distribution in the central compartment, V1, exp(θ2); typical value of final population model (95% CI)
assayMetric: Vd (L)
// note: answer is a bare numeric in L

Form: molecule = CC(C)c1cccc(C(C)C)c1O ; Vd = 9.46

* * *

assayOverview: clinical
statedConditions: human, plasma, intravenous, Volume of distribution in the central compartment, V1, exp(θ2); median of Bootstrap (2.5th to 97.5th percentiles)
assayMetric: Vd
Answer as a quantity: numeral, then unit.

Form: compound = CC(C)c1cccc(C(C)C)c1O ; Vd = 8.92 L

* * *

assayOverview: Population pharmacokinetic (PopPK) three-compartment model of the propofol derivative from clinical trial plasma concentrations
Format: in vivo, human
statedConditions: human, plasma, intravenous; exp(θ1); typical value of final population model (95% CI); read-out: Clearance, CL (converted)
assayMetric: clearance (mL/min)
// note: answer is a bare numeric in mL/min

Form: compound = CC(C)c1cccc([C@H](C)C2CC2)c1O [propofol derivative] ; clearance = 1110

* * *

assayOverview: clinical
statedConditions: human, plasma, intravenous, Clearance, CL, exp(θ1); median of Bootstrap (2.5th to 97.5th percentiles)
assayMetric: clearance

Form: compound = CC(C)c1cccc(C(C)C)c1O [propofol] ; clearance = 1530 mL/min

Source of measurements: patent US20250372228A1
